Test system: Wolbachia pipientis
Experiment: Anti-Wolbachia Cell-Based Screen
Assay type: functional
Design: scale not given: in the data most compounds retested in dose-response had high values
Settings: 5 µM
About 13,000 (27%) of roughly 48,000 compounds showed an effect of 50% or more. The list shows a part of the results.
Readout: Percent Effect (%)
// return numeric value only (unit: %, not printed)

# annotated cases, reported Percent Effect shown
INSERT INTO results (compound, numeric_value) VALUES
  ('COc1ccccc1OCc1cc(C(=O)N2CCN[C@H](C)C2)n[nH]1', 8.163),
  ('COc1ccccc1OCc1cc(C(=O)N2CCN(C(C)=O)CC2)n[nH]1', -25.23),
  ('O=C(c1ccc(-n2cccn2)nc1)N1CCC(c2ccc(O)cc2)CC1', -5.1),
  ('Clc1ccccc1C1CN(CCc2ccncc2)CCO1 (centres undefined)', 118),
  ('Cn1nc(C(=O)N2CCSCC2)cc1NC(=O)c1ccccc1', 96.7);

stdin: Record request: Percent Effect value, item "CC(C)=CCN1CCC2(CC1)c1ccccc1[C@@H](N1CCSCC1)[C@@H]2O"
stdout: 17.95

stdin: Record request: Percent Effect value, item "Cc1ncsc1-c1ccn(CC(=O)Nc2cnn(C)n2)n1"
stdout: -5.489

stdin: Record request: Percent Effect value, item CCn1nc(C)c(CCN2CC3(CCOC3)CCC2=O)c1C (centres undefined)
stdout: -24.96

stdin: Record request: Percent Effect value, item "Cc1cccc(C(=O)N2CCSCC2)c1NC(=O)c1cccnc1"
stdout: -13.65

stdin: Record request: Percent Effect value, item Cc1nc(C)n(CC2CN(CCc3ccccc3Cl)CCO2)n1 (centres undefined)
stdout: -35.87

stdin: Record request: Percent Effect value, item "Cc1ncsc1C(=O)NCCSCCCO"
stdout: -0.9457
